pIC50: −log10 of the molar value.
Reported pIC50 on Histone deacetylase 1 (Homo sapiens, UniProt Q13547) for assorted compounds, compiled from publications.

| substance_smiles | target_under_test | censoring_qualifier | pIC50 |
| --- | --- | --- | --- |
| CC(C)(C)OC(=O)N1CCc2c1cccc2N1C(=O)N(Cc2ccc(-c3nnc(C(F)F)o3)cn2)C(=O)C1(C)C | Histone deacetylase 1 (Homo sapiens, UniProt Q13547) | < | 5.00 |
| COc1cccc(CN2CCC(c3ccnc4c3ccn4Cc3ccc(C(=O)NO)cc3)CC2)c1 | Histone deacetylase 1 (Homo sapiens, UniProt Q13547) | = | 6.48 |
| C=CCCc1nc2cc(/C=C/C(=O)NO)ccc2n1CCN(CC)CC | Histone deacetylase 1 (Homo sapiens, UniProt Q13547) | = | 7.15 |
| Cn1cc(CCN2CCC[C@H]2c2ccc(/C=C/C(=O)NO)cc2)cn1 | Histone deacetylase 1 (Homo sapiens, UniProt Q13547) | = | 8.10 |
| O=C(CCCCCC=C(c1ccccn1)c1ccccn1)NO | Histone deacetylase 1 (Homo sapiens, UniProt Q13547) | = | 6.19 |
| Nc1ccccc1NC(=O)c1ccc2nn(Cc3cccnc3)cc2c1 | Histone deacetylase 1 (Homo sapiens, UniProt Q13547) | > | 6.00 |
| Nc1ccc(-c2ccoc2)cc1NC(=O)c1ncc(N2CCNCC2)s1 | Histone deacetylase 1 (Homo sapiens, UniProt Q13547) | > | 8.00 |
| CN(CCc1ccccc1)S(=O)(=O)c1cccc(/C=C/C(=O)NO)c1 | Histone deacetylase 1 (Homo sapiens, UniProt Q13547) | = | 8.30 |
| Nc1ccccc1NC(=O)c1ccc(N2CC[C@H](Oc3ccccc3)C2)cc1 | Histone deacetylase 1 (Homo sapiens, UniProt Q13547) | = | 6.58 |

###

pIC50: −log10 of the molar value.
Reported pIC50 on Histone deacetylase 1 (Homo sapiens, UniProt Q13547) for assorted molecules, compiled from publications.
measured_quantity: pIC50

| substance_smiles | censoring_qualifier | numeric_value |
| --- | --- | --- |
| COc1cccc(CN2CCN(c3ccnc4c3ccn4Cc3ccc(C(=O)NO)cc3)CC2)c1 | = | 5.85 |
| Cc1nn(-c2ccccc2)c(C)c1C[C@H]1C[C@H](O)CN1Cc1ccc(/C=C/C(=O)NO)cc1 | = | 9.15 |
| Nc1ccc(-c2cccs2)cc1NC(=O)c1ccc(CN2CCC[C@@H](O)C2)cc1 | > | 6.00 |

###

Reported pIC50 on Histone deacetylase 1 (Homo sapiens) for assorted compounds, compiled from publications.
pIC50: −log10 of the molar value.
measured_quantity: pIC50

| substance_smiles | censoring_qualifier | numeric_value |
| --- | --- | --- |
| Nc1ccc(-c2cccs2)cc1NC(=O)c1ccc(CN2CCN(CCn3ccnc3)CC2)cc1 | > | 6.00 |
| CC1(C)C(=O)N(Cc2ccc(-c3nnc(C(F)F)o3)cn2)C(=O)N1c1ccc(F)cc1 | < | 5.00 |
| CN(C(=O)N1CCC(Nc2ncc(C(=O)NO)cn2)(c2ccccc2)CC1)c1ccccc1 | = | 6.58 |
| O=C(NO)c1cc(F)c(Cn2nnc(-c3scc4c3OCCO4)n2)c(F)c1 | = | 5.64 |

###

Reported IC50 on Histone deacetylase 1 (Homo sapiens) for assorted compounds, compiled from publications.

| substance_smiles | censoring_qualifier | IC50 [nM] |
| --- | --- | --- |
| CN1CCN(Cc2cccc(CN3CCC(c4ccnc5c4ccn5Cc4ccc(C(=O)NO)cc4)CC3)c2)CC1 | = | 420 |
| O=C1CN(c2ccccc2)C(=O)N1Cc1ccc(-c2nnc(C(F)F)o2)cc1F | > | 10000 |
| CC(C)(F)CN1CCN(Cc2ccc(-c3ccnc4c3ccn4Cc3ccc(C(=O)NO)cc3)cc2)CC1 | = | 4200 |
| CC(C)(C)OC(=O)N[C@H]1CCN(c2ccc(C(=O)Nc3ccccc3N)cc2)C1 | ≤ | 500 |
| Cc1ccc(S(=O)(=O)N2CCC(Nc3ncc(C(=O)NO)cn3)(c3ccccc3)CC2)cc1 | = | 570 |
| O=C(NO)c1ccc(Cn2ccc3ccc(C4=CCOCC4)nc32)cc1 | = | 190 |
| Cc1c(Cc2ccc(C(=O)NO)cc2)c2ccccc2n1CCN1CCC[C@H]1CO | = | 1260 |
| O=C(NO)c1ccc(Cn2ccc3c(C4CCN(Cc5ncccn5)CC4)ccnc32)cc1 | = | 280 |
| Cc1cccc(S(=O)(=O)N2CCN(Cc3ccc(/C=C/C(=O)NO)cc3)CC2)c1 | = | 260 |
| O=C(NO)c1ccc(-c2cccc(CNCCc3c[nH]c4ccccc34)c2)s1 | = | 17 |
| Nc1ccc(-c2cccs2)cc1NC(=O)c1ccc(CN2CCN(Cc3ccccc3)CC2)cc1 | < | 1000 |
| Cc1cc(C)n(C[C@H]2CCCN2Cc2ccc(/C=C/C(=O)NO)cc2)n1 | = | 3 |
| O=C(NO)c1ccc(Cn2ccc3cc(C4CCN(Cc5cncnc5)CC4)cnc32)cc1 | = | 770 |
| O=C(NO)c1ccc2ccn(CCOc3ccccc3Cl)c2c1 | > | 10000 |
| CC(F)(F)CN1CCN(c2ccc3c(c2)C(C)(C)C(=O)N(Cc2ccc(-c4nnc(C(F)F)o4)cn2)C3=O)CC1 | > | 10000 |
| CC1(C)C(=O)N(Cc2ccc(-c3nnc(C(F)F)o3)cc2)C(=O)c2ccccc21 | > | 10000 |

###

pIC50: −log10 of the molar value.
Reported pIC50 on Histone deacetylase 1 (Homo sapiens) for assorted compounds, compiled from publications.

| compound | censoring_qualifier | pIC50 |
| --- | --- | --- |
| CC(C)C1(c2ccn(Cc3ccc(C(=O)NO)cc3)c(=O)c2)CCCO1 (centres unmarked) | < | 6.70 |
| CC(C)(O)c1nn2ccccc2c1CCN1CCC[C@H]1c1ccc(/C=C/C(=O)NO)cc1 | = | 8.70 |
| CCC(=O)CCCCC[C@H](NC(=O)C1CCCN(C)C1)c1ncc(-c2cc3ccccc3nc2OC)o1 (some centres unmarked) | > | 7.00 |
| CCCCN(CCn1cnc2cc(/C=C/C(=O)NO)ccc21)CC(F)(F)F | = | 7.00 |
| CC(C)c1[nH]c2ccccc2c1C1CCCN(Cc2ccc(CCC(=O)NO)cc2F)C1 (centres unmarked) | = | 8.22 |
| Cc1c(Cc2ccc(C(=O)NO)cc2)c2ccccc2n1CCN1CCN(CC(C)(C)F)CC1 | = | 6.43 |
| CC1(C)C(=O)N(Cc2ccc(-c3nnc(C(F)F)o3)cn2)C(=O)c2c(-c3ccoc3)cccc21 | < | 5.00 |
| CCC(F)(F)CN1CCN(c2ccc3c(c2)C(C)(C)C(=O)N(Cc2ccc(-c4nnc(C(F)F)o4)cn2)C3=O)CC1 | < | 5.00 |

###

pIC50: −log10 of the molar value.
Reported pIC50 on Histone deacetylase 1 (Homo sapiens, UniProt Q13547) for assorted molecules, compiled from publications.
measured_quantity: pIC50

| molecule | measured_quantity | result |
| --- | --- | --- |
| Cc1ccc(Cn2ncc3cc(C(=O)Nc4ccccc4N)ccc32)c(C)n1 | pIC50 | > 6.00 |
| CCCCCN1CCN(c2ccc3c(c2)C(C)(C)C(=O)N(Cc2ccc(-c4nnc(C(F)F)o4)cn2)C3=O)CC1 | pIC50 | < 5.00 |
| Nc1ccc(-c2cccs2)cc1NC(=O)c1ccc(CN2CCCC2)cc1 | pIC50 | > 6.00 |
| O=C(NO)c1ccc(Cn2ccc(C3(c4ccc(F)cc4)CCCO3)c(F)c2=O)cc1 (stereo not shown) | pIC50 | 6.70 to 7.30 |

###

Reported IC50 on Histone deacetylase 1 (Homo sapiens) for assorted compounds, compiled from publications.
Hi! Just check whether IC50 is below 200 nM. Below gives True, equal or above gives False.

| compound | label_value |
| --- | --- |
| C[C@@H]1CN(c2cnc3c(ccn3Cc3ccc(C(=O)NO)cc3)c2)C[C@H](C)N1Cc1cccc(F)c1 | False |
| O=C(/C=C/c1ccc(C2CCCN2CCCc2c[nH]c3ccccc23)cc1)NO (stereo not shown) | True |
| O=c1[nH]c2ccc(F)cc2c(=O)n1Cc1ccc(-c2nnc(C(F)F)o2)cn1 | False |
| O=C(/C=C/c1ccc(CN2CCOC(c3cc(-c4ccccc4)no3)C2)cc1)NO (stereo not shown) | True |
| O=C(NO)c1ccc(-c2ccc(CNCCc3c[nH]c4ccccc34)cc2)s1 | True |
| CCCCc1nc2cc(/C=C/C(=O)NO)ccc2n1CCNCC | True |
| CC/C=C\CCc1nc2cc(/C=C/C(=O)NO)ccc2n1CCN(C)C | True |
| CC(C)(C)OC(=O)N1CCC(F)(CN2CCN(c3ccnc4c3ccn4Cc3ccc(C(=O)NO)cc3)CC2)CC1 | False |
| CC(C)N(CCn1c(CCC(F)(F)F)nc2cc(/C=C/C(=O)NO)ccc21)C(C)C | False |
| O=C(NO)c1ccc(Cn2ccc3cc(C4CCN(Cc5cccc(C(F)(F)F)c5)CC4)cnc32)cc1 | False |
| Nc1ccc(F)cc1NC(=O)c1ccc(CNC(=O)c2cccc3ccccc23)cc1 | False |
| CCC(=O)CCCCC[C@H](NC(=O)C1CN(C)C1)c1ncc(-c2ccc(-c3ccc(OC)nc3)cc2)o1 | True |
| CCc1cnc(N2CCN(c3ccnc4c3ccn4Cc3ccc(C(=O)NO)cc3)CC2)nc1 | False |
| O=C(CCCCCCN(c1ccccn1)c1cc(-c2ccccc2)ccn1)NO | True |
| CCOC(=O)N1CCN(Cc2ccc(/C=C/C(=O)NO)cc2)CC1 | True |
| CC(c1ccc(/C=C/C(=O)NO)cc1)N1CCC[C@H]1CN1CCCC1 (stereo partly shown) | False |
| O=C(NO)c1cnc(NC2(c3ccccc3)CCN(S(=O)(=O)c3ccccc3)CC2)nc1 | False |
| CN1C(=O)C2(CCN(Cc3ccc(/C=C/C(=O)NO)cc3)CC2)c2ccccc21 | True |
| O=C(NO)c1ccc(Cn2ccc3cc(-c4ccc(F)cc4)cnc32)cc1 | False |
| COc1ccc(C(O)CN2CCCC2c2ccc(/C=C/C(=O)NO)cc2)cc1 (stereo not shown) | True |
| O=C(/C=C/c1ccc(CN2C[C@H](O)C[C@@H]2Cc2c[nH]c3ccccc23)cc1)NO | True |
| O=C(NO)c1ccc(Cn2ccc3cc(C4CCN(Cc5cccc(CN6CCOCC6)c5)CC4)cnc32)cc1 | False |
| CC/C=C\CCCCCc1nc2cc(/C=C/C(=O)NO)ccc2n1CCNC | True |
| O=C(NO)c1cnc(NC2(c3ccccc3)CCN(S(=O)(=O)c3ccc(C(F)(F)F)cc3)CC2)nc1 | False |
| Cc1cc(C)n(CCN2CCC[C@H]2c2ccc(/C=C/C(=O)NO)cc2)n1 | True |
| COC[C@@H]1CCCN1CCn1c(C)c(Cc2ccc(C(=O)NO)cc2)c2ccccc21 | False |
